Where do these numbers come from? They come from patent US20090298765A1.

biological target: human OT7T175 (metastin receptor) (human, UniProt Q969F8 1-398); assay: cell-based or functional assay
Sequence (Q969F8 whole entry L364H): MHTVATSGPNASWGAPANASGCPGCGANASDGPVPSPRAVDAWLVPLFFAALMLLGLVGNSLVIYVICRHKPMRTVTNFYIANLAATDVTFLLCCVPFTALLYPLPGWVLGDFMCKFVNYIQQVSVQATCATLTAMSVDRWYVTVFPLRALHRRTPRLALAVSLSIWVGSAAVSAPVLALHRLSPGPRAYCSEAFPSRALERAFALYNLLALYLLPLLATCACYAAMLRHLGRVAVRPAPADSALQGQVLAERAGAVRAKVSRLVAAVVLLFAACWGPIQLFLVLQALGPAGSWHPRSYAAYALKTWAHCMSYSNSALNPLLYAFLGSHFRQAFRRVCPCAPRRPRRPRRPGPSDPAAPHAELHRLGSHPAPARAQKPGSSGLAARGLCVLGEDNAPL
Non-standard residues stand in square brackets, D forms with d. No end group written: not given here. 1Nal = N[C@@H](Cc1cccc2ccccc12)C(=O)O; Arg(Me) = CNC(=N)NCCC[C@H](N)C(=O)O; azaGly = NNC(=O)O

>  <binder>
[dY]INSFGL[Arg(Me)]F-NH2 (N-terminus assumed; SMILES CC[C@H](C)[C@H](NC(=O)[C@H](N)Cc1ccc(O)cc1)C(=O)N[C@@H](CC(N)=O)C(=O)N[C@@H](CO)C(=O)N[C@@H](Cc1ccccc1)C(=O)NCC(=O)N[C@@H](CC(C)C)C(=O)N[C@@H](CCCNC(=N)NC)C(=O)N[C@@H](Cc1ccccc1)C(N)=O, also called Compound No. 228) [des(1)-[D-Tyr2,Ile3,Arg(Me)9]MS10]

>  <Ca ion level-increasing activity (FLIPR)>
5 x Metastin (1-54)

$$$$
>  <binder>
[dY]N[1Nal]NSF[azaGly]L[Arg(Me)]F-NH2 (N-terminus assumed; SMILES CNC(=N)NCCC[C@H](NC(=O)[C@H](CC(C)C)NC(=O)NNC(=O)[C@H](Cc1ccccc1)NC(=O)[C@H](CO)NC(=O)[C@H](CC(N)=O)NC(=O)[C@H](Cc1cccc2ccccc12)NC(=O)[C@H](CC(N)=O)NC(=O)[C@H](N)Cc1ccc(O)cc1)C(=O)N[C@@H](Cc1ccccc1)C(N)=O, also called Compound No. 245) [[D-Tyr1,Nal(1)3,AzaGly7,Arg(Me)9]MS10]

>  <Ca ion level-increasing activity (FLIPR)>
1 x Metastin (1-54)

$$$$
